test system: rodent lifetime carcinogenesis bioassay, tumor incidence TD50; test: carcinogenic potency in animals, long-term in vivo studies, CPDB compilation (AID 1745844); settings: mouse; strain Swiss albino; males; in drinking water; site: liver; lesion: angiosarcoma; dosed 79 weeks; study length 79 weeks
Calls of active or inactive are those of the source. How the calls were made is not given here.
RECORDED ENDPOINT: TD50

INSERT INTO results (smiles_code, result) VALUES
  ('NC(=O)NNc1ccccc1', '2000 mg/kg/day (inactive)');

---

system: rodent lifetime carcinogenesis bioassay, tumor incidence TD50; assay: carcinogenic potency in animals, long-term in vivo studies, CPDB compilation (AID 1745844); conditions: mouse; strain B6C3F1; males; by gavage; site: all sites; lesion: malignant lymphoma, histiocytic type + malignant lymphoma, mixed type + malignant lymphoma, lymphocytic type + malignant lymph; dosed 103 weeks; study length 104 weeks
Calls of active or inactive are those of the source. No rule for the calls is given here.
RECORDED ENDPOINT: TD50

INSERT INTO measurements (smiles_code, result) VALUES
  ('O=C1CCc2ccccc2O1', '3780 mg/kg/day (inactive)');

---

system: rodent lifetime carcinogenesis bioassay, tumor incidence TD50; assay: carcinogenic potency in animals, long-term in vivo studies, CPDB compilation (AID 1745844); conditions: rat; strain Fischer 344; females; inhaled; site: liver; lesion: neoplastic nodule; dosed 78 weeks; study length 104 weeks
RECORDED ENDPOINT: TD50 (mg/kg/day)

INSERT INTO results (smiles_code, target_system, result) VALUES
  ('C=CCl', 'rodent lifetime carcinogenesis bioassay, tumor incidence TD50', 96.3);

---

test system: rodent lifetime carcinogenesis bioassay, tumor incidence TD50; assay: carcinogenic potency in animals, long-term in vivo studies, CPDB compilation (AID 1745844); conditions: rat; strain Fischer 344; males; in drinking water; site: cecum + colon + duodenum + ileum + jejunum + large intestine + liver + lung + multiple organs + pharynx + preputial gland + rectum + skin + tongue; lesion: adenomatous polyp + adenocarcinoma + mucinous cystadenocarcinoma + hepatocellular carcinoma + neoplastic nodule + alveolar/bronchi; dosed 58 weeks; study length 60 weeks
RECORDED ENDPOINT: TD50 (mg/kg/day)

INSERT INTO assay_data (smiles_code, recorded_endpoint, result) VALUES
  ('Cc1cc(-c2ccc(N)c(C)c2)ccc1N', 'TD50', 0.346);

---

tested on: rodent lifetime carcinogenesis bioassay, tumor incidence TD50; experiment: carcinogenic potency in animals, long-term in vivo studies, CPDB compilation (AID 1745844); settings: rat; strain Fischer 344; females; in feed; site: any site (literature study); lesion: several types; types named in the paper; dosed 106 weeks; study length 106 weeks
Active and inactive are the calls of the source. No rule for the calls is given here.
RECORDED ENDPOINT: TD50

INSERT INTO assay_data (smiles_code, target_system, result) VALUES
  ('NC(=O)c1ccccc1C(N)=O', 'rodent lifetime carcinogenesis bioassay, tumor incidence TD50', '722 mg/kg/day (inactive)');

---

system: rodent lifetime carcinogenesis bioassay, tumor incidence TD50; assay: carcinogenic potency in animals, long-term in vivo studies, CPDB compilation (AID 1745844); conditions: rat; strain Fischer 344; females; by gavage; site: large intestine; lesion: adenocarcinoma + polypoid adenoma; dosed 103 weeks; study length 106 weeks
RECORDED ENDPOINT: TD50

INSERT INTO assay_data (smiles_code, recorded_endpoint, result) VALUES
  ('BrC(Br)Br', 'TD50', '469 mg/kg/day');
